Reported parasite load remaining values for a set of molecules
PROTOCOL_TEXT: liver-stage malaria parasite growth inhibition, primary screen, cell-based, HepG2, luciferase luminescence, HepG2 viability (AID 624349);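 also: 100% = mean of DMSO negative control wells on the same plate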
EXPERIMENTAL_PARAMETERS: P. berghei liver stage in HepG2, luciferase luminescence, concentration not given here; hits give low values
PROPERTY_LABEL: parasite load remaining (%)

>  <MOLECULE>
CC1CCC2(OC1)OC1CC3C4CC[C@H]5C[C@@H](O)CC[C@]5(C)C4CC(=O)[C@]3(C)C1C2C (stereo partly specified)

>  <PROPERTY_LABEL>
parasite load remaining

>  <READOUT_VALUE>
106

$$$$
>  <MOLECULE>
CN1CCc2cc(Cl)c(O)cc2[C@@H](c2ccccc2)C1

>  <PROPERTY_LABEL>
parasite load remaining

>  <READOUT_VALUE>
38.6

$$$$
>  <MOLECULE>
O=C(CNC(=O)c1ccc(Cl)cc1)NO

>  <PROPERTY_LABEL>
parasite load remaining

>  <READOUT_VALUE>
45.5

$$$$
>  <MOLECULE>
Cc1nc(N)cc(C[n+]2csc(CCO)c2C)n1

>  <PROPERTY_LABEL>
parasite load remaining

>  <READOUT_VALUE>
58.2

$$$$
>  <MOLECULE>
Fc1ccc(C2CCNCC2COc2ccc3c(c2)OCO3)cc1 (stereo unspecified)

>  <PROPERTY_LABEL>
parasite load remaining

>  <READOUT_VALUE>
-4.52

$$$$
>  <MOLECULE>
CC(COc1ccccc1Cc1ccccc1)N1CCCCC1 (stereo unspecified)

>  <PROPERTY_LABEL>
parasite load remaining

>  <READOUT_VALUE>
25.1

$$$$

###

Quick reference for log fold change Tl+ flux among some compounds
Test system: F380Y/beta4
PROTOCOL_TEXT: modulators of BK channel variants, profiling panel, selectivity assay, cell-based, U2OS BacMam, thallium flux, beta subunits (AID 1259406);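 also: initial slope of Thallos dye fluorescence rise after thallium is added; log ratio against the mean of 0.3% DMSO vehicle wells on the same plate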
EXPERIMENTAL_PARAMETERS: at 30 µM
PROPERTY_LABEL: log fold change Tl+ flux

>  <COMPOUND>
CCC(=NOc1ccc(C(F)(F)F)cn1)c1ccc(-c2ccccc2F)cc1

>  <PROPERTY_LABEL>
log fold change Tl+ flux

>  <READOUT_VALUE>
-0.0257

$$$$
>  <COMPOUND>
CN1[C@@H]2CC[C@H]1CC(OC(=O)C(CO)c1ccccc1)C2 (some centres undefined)

>  <PROPERTY_LABEL>
log fold change Tl+ flux

>  <READOUT_VALUE>
0.0216

$$$$
>  <COMPOUND>
O=C(O)CC1(CC(=O)Nc2cccc3nsnc23)CCCCC1

>  <PROPERTY_LABEL>
log fold change Tl+ flux

>  <READOUT_VALUE>
0.0555

$$$$
>  <COMPOUND>
C[C@H]1O[C@@H](O[C@H]2[C@@H](O)C[C@H](O[C@H]3[C@@H](O)C[C@H](O[C@H]4CC[C@@]5(C)[C@H](CC[C@@H]6[C@@H]5C[C@@H](O)[C@]5(C)C(C7=CC(=O)OC7)CC[C@]65O)C4)O[C@@H]3C)O[C@@H]2C)C[C@H](O)[C@@H]1O (some centres undefined)

>  <PROPERTY_LABEL>
log fold change Tl+ flux

>  <READOUT_VALUE>
-0.0566

$$$$
>  <COMPOUND>
COc1cc(NC(=S)Nc2cccc(C)n2)c(OC)cc1Cl

>  <PROPERTY_LABEL>
log fold change Tl+ flux

>  <READOUT_VALUE>
0.0519

$$$$
>  <COMPOUND>
O=C1CCC(=O)N1c1ccc(S(=O)(=O)NCCCN2CCN(Cc3ccccc3)CC2)cc1

>  <PROPERTY_LABEL>
log fold change Tl+ flux

>  <READOUT_VALUE>
-0.0181

$$$$
>  <COMPOUND>
COC(=O)Cc1cccc2c(=O)c3ccccc3oc12

>  <PROPERTY_LABEL>
log fold change Tl+ flux

>  <READOUT_VALUE>
0.0357

$$$$
>  <COMPOUND>
Cc1nn(Cc2nnc(-c3cc(C(F)(F)F)cc(C(F)(F)F)c3)o2)c(C)c1Br

>  <PROPERTY_LABEL>
log fold change Tl+ flux

>  <READOUT_VALUE>
-0.0305

$$$$
>  <COMPOUND>
CSc1nc2cc(Oc3cccc(Cl)c3Cl)c(Cl)cc2[nH]1

>  <PROPERTY_LABEL>
log fold change Tl+ flux

>  <READOUT_VALUE>
0.0138

$$$$

###

Tested on: Aerobactin synthetase IucA (Klebsiella pneumoniae)
PROTOCOL_TEXT: IucA aerobactin synthetase inhibitors, biochemical, Tocris library, absorbance (AID 1345561);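 also: 100% = enzyme without compound and 0% = no enzyme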
EXPERIMENTAL_PARAMETERS: purified IucA enzyme assay, absorbance (OD) read-out; hits give low values; concentration not given here

>  <COMPOUND>
COc1ccc(CCCOC(Cn2ccnc2)c2ccc(OC)cc2)cc1 (stereo not drawn)

>  <remaining activity [%]>
113

$$$$
>  <COMPOUND>
COc1cccc2c1C(=O)c1c(O)c3c(c(O)c1C2=O)C[C@@](O)(C(C)=O)C[C@@H]3OC1CC(N)C(O)C(C)O1 (stereo partly drawn)

>  <remaining activity [%]>
110

$$$$
>  <COMPOUND>
COc1nc(C)nc(Cl)c1NC1=NCCN1

>  <remaining activity [%]>
93.9

$$$$
>  <COMPOUND>
O=Nc1c(-c2c(O)[nH]c3cc(Br)ccc23)[nH]c2ccccc12

>  <remaining activity [%]>
107

$$$$
>  <COMPOUND>
Oc1ccc2ccccc2c1SSc1c(O)ccc2ccccc12

>  <remaining activity [%]>
112

$$$$
>  <COMPOUND>
CCCC[C@@H](C=O)NC(=O)[C@H](CC(C)C)NC(=O)OCc1ccccc1

>  <remaining activity [%]>
86.3

$$$$
>  <COMPOUND>
Oc1ccc(-c2nc(-c3ccc(F)cc3)c(-c3ccncc3)[nH]2)cc1

>  <remaining activity [%]>
114

$$$$
>  <COMPOUND>
COc1cc(/C=C(\C#N)C(N)=O)cc(CSc2nc3ccccc3s2)c1O

>  <remaining activity [%]>
115

$$$$
>  <COMPOUND>
Cc1[nH]c(/C=C2\C(=O)Nc3ccccc32)c(C)c1CCC(=O)O

>  <remaining activity [%]>
95.9

$$$$
>  <COMPOUND>
Cc1cccc(C#Cc2ccccc2)n1

>  <remaining activity [%]>
102

$$$$
>  <COMPOUND>
O=C(OCCN1CCOCC1)C1(c2ccccc2)CCCCC1

>  <remaining activity [%]>
124

$$$$
>  <COMPOUND>
CC(NC(=O)c1ccccc1N=Cc1c(O)ccc2ccccc12)c1ccccc1 (stereo not drawn)

>  <remaining activity [%]>
102

$$$$
>  <COMPOUND>
CN(C(=O)CCCOc1ccc2[nH]c(=O)ccc2c1)C1CCCCC1

>  <remaining activity [%]>
117

$$$$
>  <COMPOUND>
NCC(O)(CS(=O)(=O)O)c1ccc(Cl)cc1 (stereo not drawn)

>  <remaining activity [%]>
105

$$$$
>  <COMPOUND>
Oc1cc(O)cc(/C=C/c2ccc(O)c(O)c2)c1

>  <remaining activity [%]>
112

$$$$
>  <COMPOUND>
Cc1cccc(CCN2CCC(C(=O)c3ccc(NS(C)(=O)=O)cc3)CC2)n1

>  <remaining activity [%]>
104

$$$$
>  <COMPOUND>
Clc1ccc2c(c1)N=C(N1CCNCC1)c1ccccc1N2

>  <remaining activity [%]>
102

$$$$
>  <COMPOUND>
CCOC(=O)C1=C(N)Oc2ccc(Br)cc2C1C(C#N)C(=O)OCC (stereo not drawn)

>  <remaining activity [%]>
92.3

$$$$
>  <COMPOUND>
O=C(/C=C/c1c(C(=O)O)[nH]c2cc(Cl)cc(Cl)c12)Nc1ccccc1

>  <remaining activity [%]>
87.2

$$$$
>  <COMPOUND>
CC(C)NC[C@H](O)COc1cccc2ccccc12

>  <remaining activity [%]>
97

$$$$
>  <COMPOUND>
COc1cc(N)c(Cl)cc1C(=O)N[C@@H]1CCN(CCCOc2ccc(F)cc2)C[C@@H]1OC

>  <remaining activity [%]>
111

$$$$
>  <COMPOUND>
COc1cccc(-c2cc(=O)c3ccccc3o2)c1N

>  <remaining activity [%]>
102

$$$$
>  <COMPOUND>
O=C(O)c1cc(=O)c2c(Cl)cc(Cl)cc2[nH]1

>  <remaining activity [%]>
90.4

$$$$

Data provenance: PubChem BioAssay
